Target: Osm1 (Saccharomyces cerevisiae, UniProt P21375)
Construct: residues 32-501, N-terminal His6 tag and thrombin site in pET28a, E. coli BL21(DE3); tag removed by trypsin for crystals
Sequence (P21375 32-501): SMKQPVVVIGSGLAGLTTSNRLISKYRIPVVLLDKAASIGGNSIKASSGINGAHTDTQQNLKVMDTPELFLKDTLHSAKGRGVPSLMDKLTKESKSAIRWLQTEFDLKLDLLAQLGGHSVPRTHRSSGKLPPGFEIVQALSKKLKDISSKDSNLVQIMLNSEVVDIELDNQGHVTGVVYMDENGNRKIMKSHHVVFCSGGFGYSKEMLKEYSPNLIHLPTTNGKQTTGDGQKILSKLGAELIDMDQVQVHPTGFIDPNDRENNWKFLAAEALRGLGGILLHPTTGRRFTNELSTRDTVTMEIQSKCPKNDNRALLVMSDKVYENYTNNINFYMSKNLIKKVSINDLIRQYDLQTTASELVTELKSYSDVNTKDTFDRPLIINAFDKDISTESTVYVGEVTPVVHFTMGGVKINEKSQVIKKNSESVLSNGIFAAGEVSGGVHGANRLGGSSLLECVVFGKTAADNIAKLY
Experiment: isothermal titration calorimetry
PROPERTY NAME: pKd
Conceptually, pKd converts a concentration in mol/L into minus its log10.

INPUT: Value lookup for pKd; key = Cc1cc2nc3c(=O)[nH]c(=O)nc-3n(C[C@H](O)[C@H](O)[C@H](O)COP(=O)(O)OP(=O)(O)OC[C@H]3O[C@@H](n4cnc5c(N)ncnc54)[C@H](O)[C@@H]3O)c2cc1C [FAD]
OUTPUT: 5.31
